These data points were gathered from PubChem BioAssay.

tested-system: Focal adhesion kinase 1 (Homo sapiens) (UniProt Q05397)
Sequence (Q05397 whole entry, looked up): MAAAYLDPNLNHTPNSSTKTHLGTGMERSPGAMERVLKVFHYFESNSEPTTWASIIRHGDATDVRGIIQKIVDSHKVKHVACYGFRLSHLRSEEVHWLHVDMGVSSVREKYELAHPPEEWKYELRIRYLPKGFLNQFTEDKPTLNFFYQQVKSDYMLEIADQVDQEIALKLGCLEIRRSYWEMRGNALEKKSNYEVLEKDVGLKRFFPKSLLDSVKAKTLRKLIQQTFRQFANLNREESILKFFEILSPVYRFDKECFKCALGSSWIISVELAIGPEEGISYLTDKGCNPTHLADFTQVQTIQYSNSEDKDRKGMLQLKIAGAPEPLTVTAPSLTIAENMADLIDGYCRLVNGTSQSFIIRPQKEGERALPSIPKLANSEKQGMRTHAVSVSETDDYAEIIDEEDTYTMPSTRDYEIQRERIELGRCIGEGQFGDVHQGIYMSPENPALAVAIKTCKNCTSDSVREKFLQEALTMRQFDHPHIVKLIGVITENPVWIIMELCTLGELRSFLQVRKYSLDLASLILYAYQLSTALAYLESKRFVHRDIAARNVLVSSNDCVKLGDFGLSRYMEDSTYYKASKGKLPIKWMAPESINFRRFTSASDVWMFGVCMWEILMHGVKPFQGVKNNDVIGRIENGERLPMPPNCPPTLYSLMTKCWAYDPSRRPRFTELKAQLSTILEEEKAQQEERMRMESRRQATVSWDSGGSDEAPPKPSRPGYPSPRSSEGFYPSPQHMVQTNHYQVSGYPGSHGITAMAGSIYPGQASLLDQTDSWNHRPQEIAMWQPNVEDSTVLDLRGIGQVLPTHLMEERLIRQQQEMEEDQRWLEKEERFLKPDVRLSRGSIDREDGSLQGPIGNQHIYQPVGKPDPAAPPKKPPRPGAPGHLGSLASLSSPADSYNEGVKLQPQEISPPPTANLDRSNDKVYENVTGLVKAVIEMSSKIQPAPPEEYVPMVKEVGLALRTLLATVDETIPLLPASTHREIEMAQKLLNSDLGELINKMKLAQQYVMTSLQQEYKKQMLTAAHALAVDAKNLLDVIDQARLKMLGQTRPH
procedure-details: PTK2 protein binding on printed compound slides – biochemical, small-molecule microarray, 635/667 nm fluorescence, BSA, DTT, primary screen (AID 1130);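 also: composite of spot emission at 667 nm and signal to noise over triplicate slides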
run-parameters: 635 nm fluorescence, higher = more signal
Assignment: determine reported composite z-score for the given compounds.
// no unit, no text: just the number

Asked: Retrieve composite z-score measured for OCCCC1=CC(C2CC2)N(Cc2cccc(OC(F)(F)F)c2)CC1 (configuration not stated) and print it.
Given back: 0.227

Asked: Retrieve composite z-score measured for C=CCNC(=O)[C@H]1[C@@H]2C(=O)O[C@@H](c3ccccc3)[C@@H](c3ccccc3)N2[C@@H](c2ccc(OCCO)cc2)[C@]12C(=O)Nc1ccc(C#CCC(C(=O)OC)C(=O)OC)cc12 and print it.
Given back: 0.413

Asked: Provide one value: measured composite z-score of COC(=O)[C@@]1(Cc2ccccc2)[C@H]2c3cc(C(=O)N4CCCC4)n(Cc4ccc(O)c(OC)c4)c3C[C@H]2CN1C(=O)c1ccccc1
Given back: 0.553

Asked: For [N-]=[N+]=NCc1ccccc1[C@@H]1OC(c2ccc(OCCCO)cc2)=N[C@]1(CCS(=O)(=O)c1ccccc1)C(N)=O , write its composite z-score.
Given back: 1.21

Asked: Give composite z-score for the following compound: COc1ccc([Si](C)(C)[C@@H]2[C@@H](CCn3cc([C@H](O)c4ccccc4)nn3)O[C@]3(C(=O)N(Cc4cccc(N5CCC5=O)c4)c4ccccc43)[C@H]2C)cc1
Given back: -0.285

Asked: Using known records, supply composite z-score for [N-]=[N+]=Nc1ccccc1C[C@@]1(C(=O)N2CCCCC2)N=C(c2ccc(OCCCO)cc2)O[C@@H]1c1ccccc1
Given back: 0.98

Asked: Specify measured composite z-score for CO[C@H]1O[C@H](CO)[C@@H](OC(=O)Nc2ccccc2-c2ccccc2)[C@H](OC(=O)Nc2ccccc2-c2ccccc2)[C@@H]1OC(=O)Nc1ccccc1-c1ccccc1 .
Given back: 0.993
